Measured binding signal, listed per entry for reference.
molecular target: AGO2 T357M (Homo sapiens, UniProt Q9UKV8 1-859, T357M;S387D;S824A;S828D;S831D;S834A); assay: RNA Bind-n-Seq (nitrocellulose filter binding and sequencing); miR-122 guide loaded in AGO2; 60 min incubation; 30 mM Tris pH 8.0, 100 mM potassium acetate, 2 mM magnesium acetate, 0.5 mM TCEP, 0.005% NP-40, 0.01 mg/ml yeast tRNA; 3 nM AGO2-miR-122, 100 nM RNA library; 60; high values mean tight binding; details: protein: recombinant; tags: His6 (N-terminal, pFastBac HTA)
Sequence (Q9UKV8 whole entry T357M/S387D/S824A/S828D/S831D/S834A): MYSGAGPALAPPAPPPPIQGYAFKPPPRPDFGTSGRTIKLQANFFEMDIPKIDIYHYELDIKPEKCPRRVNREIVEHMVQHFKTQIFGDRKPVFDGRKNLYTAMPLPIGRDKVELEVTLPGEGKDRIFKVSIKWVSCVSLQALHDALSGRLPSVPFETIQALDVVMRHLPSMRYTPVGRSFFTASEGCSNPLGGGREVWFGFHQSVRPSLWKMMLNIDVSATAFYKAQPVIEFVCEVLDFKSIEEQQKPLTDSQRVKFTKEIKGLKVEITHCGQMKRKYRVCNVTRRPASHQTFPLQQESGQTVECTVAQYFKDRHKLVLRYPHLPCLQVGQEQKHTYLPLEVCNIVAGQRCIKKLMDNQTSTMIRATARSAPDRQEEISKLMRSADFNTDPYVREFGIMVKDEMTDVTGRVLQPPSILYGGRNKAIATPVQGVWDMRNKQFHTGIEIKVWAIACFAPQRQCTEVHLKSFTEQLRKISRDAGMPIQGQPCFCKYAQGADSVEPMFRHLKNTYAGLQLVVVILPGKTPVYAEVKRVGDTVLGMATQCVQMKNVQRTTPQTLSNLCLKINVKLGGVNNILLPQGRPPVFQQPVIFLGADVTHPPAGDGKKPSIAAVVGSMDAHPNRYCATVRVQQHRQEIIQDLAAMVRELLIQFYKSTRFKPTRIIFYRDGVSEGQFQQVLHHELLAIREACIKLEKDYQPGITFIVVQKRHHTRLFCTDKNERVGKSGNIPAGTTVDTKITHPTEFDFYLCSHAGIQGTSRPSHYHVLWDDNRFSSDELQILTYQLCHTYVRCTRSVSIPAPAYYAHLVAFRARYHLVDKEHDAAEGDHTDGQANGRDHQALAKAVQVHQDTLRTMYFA

Example results:
binder	binding signal
ATGTCTTG (ssRNA, constant regions annealed to DNA blockers; guide miR-122 5' phosphate) RNA 1: GAGUUCUACAGUCCGACGAUCCCAACAUGUCUUGCACCUGGAAUUCUCGGGUGCCAA RNA 2: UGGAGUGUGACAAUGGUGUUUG DNA 1: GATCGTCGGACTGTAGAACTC DNA 2: TTGGCACCCGAGAATTCCA	0.449 fold enrichment over input
ATATCTTA (ssRNA, constant regions annealed to DNA blockers; guide miR-122 5' phosphate) RNA 1: GAGUUCUACAGUCCGACGAUCCCAACAUAUCUUACACCUGGAAUUCUCGGGUGCCAA RNA 2: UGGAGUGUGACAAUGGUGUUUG DNA 1: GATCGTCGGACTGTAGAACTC DNA 2: TTGGCACCCGAGAATTCCA	0.593 fold enrichment over input
ATGCCTTG (ssRNA, constant regions annealed to DNA blockers; guide miR-122 5' phosphate) RNA 1: GAGUUCUACAGUCCGACGAUCCCAACAUGCCUUGCACCUGGAAUUCUCGGGUGCCAA RNA 2: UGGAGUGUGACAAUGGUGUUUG DNA 1: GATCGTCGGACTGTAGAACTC DNA 2: TTGGCACCCGAGAATTCCA	0.51 fold enrichment over input
GTACTCTG (ssRNA, constant regions annealed to DNA blockers; guide miR-122 5' phosphate) RNA 1: GAGUUCUACAGUCCGACGAUCCCAACGUACUCUGCACCUGGAAUUCUCGGGUGCCAA RNA 2: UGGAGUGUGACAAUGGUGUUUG DNA 1: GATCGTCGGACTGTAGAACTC DNA 2: TTGGCACCCGAGAATTCCA	0.423 fold enrichment over input
ATGTCTCA (ssRNA, constant regions annealed to DNA blockers; guide miR-122 5' phosphate) RNA 1: GAGUUCUACAGUCCGACGAUCCCAACAUGUCUCACACCUGGAAUUCUCGGGUGCCAA RNA 2: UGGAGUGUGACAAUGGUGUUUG DNA 1: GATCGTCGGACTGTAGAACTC DNA 2: TTGGCACCCGAGAATTCCA	0.678 fold enrichment over input
ACATTCTG (ssRNA, constant regions annealed to DNA blockers; guide miR-122 5' phosphate) RNA 1: GAGUUCUACAGUCCGACGAUCCCAACACAUUCUGCACCUGGAAUUCUCGGGUGCCAA RNA 2: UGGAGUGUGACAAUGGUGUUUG DNA 1: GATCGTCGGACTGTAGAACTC DNA 2: TTGGCACCCGAGAATTCCA	0.531 fold enrichment over input
ACGCCCTG (ssRNA, constant regions annealed to DNA blockers; guide miR-122 5' phosphate) RNA 1: GAGUUCUACAGUCCGACGAUCCCAACACGCCCUGCACCUGGAAUUCUCGGGUGCCAA RNA 2: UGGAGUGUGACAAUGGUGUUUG DNA 1: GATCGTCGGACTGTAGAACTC DNA 2: TTGGCACCCGAGAATTCCA	0.519 fold enrichment over input

Any idea what binding signal was measured for ACGCCCTA (ssRNA, constant regions annealed to DNA blockers; guide miR-122 5' phosphate) RNA 1: GAGUUCUACAGUCCGACGAUCCCAACACGCCCUACACCUGGAAUUCUCGGGUGCCAA RNA 2: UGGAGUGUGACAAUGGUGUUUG DNA 1: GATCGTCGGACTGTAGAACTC DNA 2: TTGGCACCCGAGAATTCCA ? 0.681 fold enrichment over input
